target: IMP-1 (Serratia marcescens); assay: Enzyme activity: determination of IC50, fluorescence assay with CCF2-FA substrate; format: biochemical; conditions: IMP-1 enzyme 2 pM, CCF2-FA 1.25 μM, 2 hours at 25° C.; read-out: IMP1 IC50
Sequence (P52699 19-246, looked up, species assumed): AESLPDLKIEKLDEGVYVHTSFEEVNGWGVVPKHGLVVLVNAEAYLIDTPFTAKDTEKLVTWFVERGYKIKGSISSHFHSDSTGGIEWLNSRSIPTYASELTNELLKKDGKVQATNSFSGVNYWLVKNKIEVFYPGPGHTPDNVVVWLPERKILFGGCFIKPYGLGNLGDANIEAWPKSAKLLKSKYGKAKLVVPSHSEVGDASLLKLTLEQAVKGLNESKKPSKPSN
pIC50: −log10 of the molar value.
Could you label it y if measured pIC50 is 6 or higher, and n otherwise?

CC(C)(C)C(C(=O)O)[C@H](Cc1ccc(Br)s1)c1nnn[nH]1 (some centres unmarked): y
CCC[C@H](C(=O)O)[C@H](Cc1cccc(N2CCC[C@@H](N)C2)c1)c1nn[nH]n1: n
CCC[C@H](C(=O)O)[C@H](Cc1cccc(-c2cncc3ccccc23)c1)c1nn[nH]n1: y

Query: Check the entry CC(C)C[C@H](C(=O)O)[C@H](Cc1ccc(C2=CCNC2)c(F)c1)c1nn[nH]n1 [Example 452, 2,2,2-trifluoroacetate] : does pIC50 equal or exceed 6?
Reply: y

Query: Check the entry CC(C)C[C@H](C(=O)O)[C@H](Cc1ccc(NCCC(C)N)nc1)c1nnn[nH]1 (some centres unmarked) : does pIC50 equal or exceed 6?
Reply: n

Query: Check the entry CCC[C@H](C(=O)O)[C@H](Cc1cccc(N2CCN(C)CC2)c1)c1nn[nH]n1 : does pIC50 equal or exceed 6?
Reply: n

Cited source: patent US9839642B2
